Origin of values: patent US6426229B1

- Method summary: Compression strength (hardening property) of powder stored under load for 2 months
- Format: physicochemical
- Condition set: Load 100 (table head [Kg]; text 100 g/cm^2); 20-30° C., relative humidity 40-70%
Readout kind: Compression strength after stored for 2 months (Kg/cm^2)
Give bare numbers, in Kg/cm^2.

# count of solved cases: 3
- Compound: "O=C([O-])CN(CC(=O)[O-])c1ccccc1C(=O)[O-].[Fe+3]"
  Result value: 1.0
- Compound: "O=C(O)CN(CC(=O)O)c1ccccc1C(=O)O [compound 14, anthranilic acid-N,N-diacetic acid, reference compound]"
  Result value: 2.5
- Compound: "CN(CC(=O)[O-])CC(=O)[O-].[Na+].[Na+] [compound 10, disodium N-methyliminodiacetate, reference compound]"
  Result value: 2.6

Dear colleague, I am looking for the recorded Compression strength after stored for 2 months of the following compound: O=C([O-])C[C@H](NCCN[C@@H](CC(=O)[O-])C(=O)[O-])C(=O)[O-].[Na+].[Na+].[Na+].[Na+] [Example 52] 1.0
